Please provide measured Vd for the entries that follow.
- measurementDescription: Volume of distribution (Vss) from mouse plasma profiles
- Type: in vivo
- conditionDescription: mice, 5 mg/kg IV bolus, 2 compartment model
Your reply should be a number followed by the unit it is expressed in.

Completed entries (count: 2):
molecule	assayValue
Cc1cc(-c2[nH]c(N)nc2-c2ccc3c(c2)N(C(=O)CN)CCO3)ccn1	7.7 L/kg
Cc1cnccc1-c1[nH]c(N)nc1-c1ccc2c(c1)N(C(=O)CN)CCO2 [Comparative Compound (III), reference compound]	7.9 L/kg

Moving on to the next molecule.
(Q) For "Cc1cnccc1-c1[nH]c(N)nc1-c1ccc2c(c1)N(C(=O)C(C)(C)N)CCO2" , write its Vd.
(A) 19.7 L/kg
